We begin with a simple list: items and their reported protein stability index.
B1: LOC100129726 (parent)
chain: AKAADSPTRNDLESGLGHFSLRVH

# Variants of: B1
# METHOD DESCRIPTION: protein stability index of a GFP-peptide fusion (GPS, HEK-293T) (PSI 1-6); higher = more stable;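 note: lentivirally expressed fusions sorted by FACS into six bins by GFP to DsRed ratio, PSI derived from sequencing read proportions per bin multiplied by bin number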
# TEST SETTINGS: c terminus: a fixed tail appended
// return a plain number; no unit text

>  <SEQUENCE CODE>
ATAADSPTRNDLESGLGHFSLRVH [K2T]

>  <QUANTITATIVE READOUT>
3.27

$$$$

Measured protein stability index of AKAADSPTRNDQESGLGHFSLRVH [L12Q] : 4.45

# protein stability index of AKAADSPTRNDLEFGLGHFSLRVH [S14F] = 2.25

Looking up AKAADSRTRNDLESGLGHFSLRVH [P7R] , I found its protein stability index recorded as 3.56

MKAADSPTRNDLESGLGHFSLRVH [A1M] yielded protein stability index of 2.74

For record AKAADSPTRNDLESGLGHFSLHVH [R22H] the listed protein stability index is 3.25

// recorded protein stability index for AKAADSPTRNDLESGLWHFSLRVH [G17W] : 2.96

According to the records, this variant AKAADSPTRNDLESGLGHESLRVH [F19E] displays protein stability index of 4.6

Please fill in: protein stability index reported for AKAADSPTRNDLNSGLGHFSLRVH [E13N] = 2.63

protein stability index for AKAADSPTRMDLESGLGHFSLRVH [N10M] is 2.51

protein stability index reported for this variant AKAADSPTRNDLESGLGHFSKRVH [L21K] : 3.5

Lab note: measured protein stability index of AKAADSPTRNDLESGVGHFSLRVH [L16V] was 2.38
